Where these numbers come from: paper PMC7382147

Test: Long-term stability of QC samples (−20 °C for 20 days)
Format: physicochemical, rat
Conditions: plasma QC, spiked 500 ng/mL
outcome_measure: Long-term stability Mean (%)

compound="COC(=O)c1ccc(O)cn1 [Analyte 2, 5-hydroxypicolinic acid methyl ester]" units_label=% value_reported=112.17
compound=O=C(O)c1ccccc1O units_label=% value_reported=87.97
compound=O=C1C[C@@H](c2ccc(O)cc2)Oc2cc(O)cc(O)c21 units_label=% value_reported=99.51
compound=O=c1c(-c2ccc(O)cc2)coc2cc(O[C@@H]3O[C@H](CO)[C@@H](O)[C@H](O)[C@H]3O)cc(O)c12 units_label=% value_reported=97.81
compound=COc1ccc(-c2coc3cc(O[C@@H]4O[C@H](CO)[C@@H](O)[C@H](O)[C@H]4O)ccc3c2=O)cc1 units_label=% value_reported=107.95
compound=O=Cc1ccc2n1C[C@]1(C[C@H](O)[C@@H](CO)O1)OC2 units_label=% value_reported=93.19
compound="O=Cc1ccc2n1C[C@@]1(C[C@H](O)[C@@H](CO)O1)OC2 [Analyte 4, 9-epi-acortatarin A]" units_label=% value_reported=104.85
compound=COc1cc(O[C@@H]2O[C@H](CO)[C@@H](O)[C@H](O)[C@H]2O)cc(OC)c1OC units_label=% value_reported=103.76
compound=COc1ccccc1-c1cc(=O)c2c(O)cc(OC)c(OC)c2o1 units_label=% value_reported=95.48

###

Test: Pharmacokinetic study in rat plasma after oral administration of FKQJF extract (UFLC–MS/MS)
Type: in vivo, Sprague-Dawley (SD) rats
Settings: Sprague-Dawley, oral FKQJF extract, single dose 3.2 g/kg, mean ± SD, read-out: Tmax
outcome_measure: Tmax (h)

// solved cases for Tmax follow
molecule="COc1cc(/C=C/C(=O)O)ccc1O [Analyte 6, trans-ferulic acid]" outcome_measure=Tmax units_label=h value_reported=0.08
molecule="C=C1CC[C@@H]2[C@](C)(CO[C@@H]3O[C@H](CO)[C@@H](O)[C@H](O)[C@H]3O)CCC[C@@]2(C)[C@@H]1CCC1=CCOC1=O [Analyte 5, neoandrographolide]" outcome_measure=Tmax units_label=h value_reported=1
molecule="CCC/C=C1\\OC(=O)C2=C1CCC=C2 [Analyte 18, Z-ligustilide]" outcome_measure=Tmax units_label=h value_reported=1.83
molecule=O=C(O)c1ccccc1O outcome_measure=Tmax units_label=h value_reported=1.67
molecule=COc1cc(O[C@@H]2O[C@H](CO)[C@@H](O)[C@H](O)[C@H]2O)cc(OC)c1OC outcome_measure=Tmax units_label=h value_reported=2
molecule=COc1ccc(-c2coc3cc(O[C@@H]4O[C@H](CO)[C@@H](O)[C@H](O)[C@H]4O)ccc3c2=O)cc1 outcome_measure=Tmax units_label=h value_reported=1.33
molecule=COc1cc2c(cc1O)CC[n+]1cc3c(OC)c(OC)ccc3cc1-2 outcome_measure=Tmax units_label=h value_reported=1.83
molecule=COc1cc2c(cc1OC)-c1cc3ccc(OC)c(OC)c3c[n+]1CC2 outcome_measure=Tmax units_label=h value_reported=1.67
molecule="O=Cc1ccc2n1C[C@@]1(C[C@H](O)[C@@H](CO)O1)OC2 [Analyte 4, 9-epi-acortatarin A]" outcome_measure=Tmax units_label=h value_reported=1
molecule=O=Cc1ccc2n1C[C@]1(C[C@H](O)[C@@H](CO)O1)OC2 outcome_measure=Tmax units_label=h value_reported=2.33

I = O=c1c(-c2ccc(O)cc2)coc2cc(O[C@@H]3O[C@H](CO)[C@@H](O)[C@H](O)[C@H]3O)cc(O)c12
II = C=C1CC[C@@H]2[C@](C)(CO)CCC[C@@]2(C)[C@@H]1CCC1=CCOC1=O
input: From the recorded data, which exceeds the other in Tmax: I or II ? Reply with the label of the item you choose.
output: II

a = COc1ccccc1-c1cc(=O)c2c(O)cc(OC)c(OC)c2o1
b = C=C1CC[C@@H]2[C@](C)(CO)[C@H](O)CC[C@@]2(C)[C@@H]1C/C=C1/C(=O)OC[C@H]1O [Analyte 12, andrographolide]
input: # compare Tmax for a vs b ; return the one with the smaller value Reply with the label of the item you choose.
output: b
(b: 1 h, a: 2 h)

A = COC(=O)c1ccc(O)cn1 [Analyte 2, 5-hydroxypicolinic acid methyl ester]
B = C=C1CC[C@@H]2[C@](C)(CO)[C@H](O)CC[C@@]2(C)[C@@H]1/C=C/C1=CCOC1=O [Analyte 15, 14-deoxy-11,12-didehydro-andrographolide]
input: # compare Tmax for A vs B ; return the one with the smaller value Reply with the label of the item you choose.
output: B

###

Assay: Pharmacokinetic study in rat plasma after oral administration of FKQJF extract (UFLC–MS/MS)
Type: in vivo, Sprague-Dawley (SD) rats
Settings: Sprague-Dawley, oral FKQJF extract, single dose 3.2 g/kg, mean ± SD
outcome_measure: AUC(0-t) (ng·h/mL)

// solved cases for AUC(0-t) follow
compound="O=Cc1ccc2n1C[C@@]1(C[C@H](O)[C@@H](CO)O1)OC2 [Analyte 4, 9-epi-acortatarin A]" outcome_measure=AUC(0-t) units_label=ng·h/mL value_reported=80.5
compound=COc1ccc2cc3[n+](cc2c1OC)CCc1cc2c(cc1-3)OCO2 outcome_measure=AUC(0-t) units_label=ng·h/mL value_reported=3800

1 = COc1cc(O[C@@H]2O[C@H](CO)[C@@H](O)[C@H](O)[C@H]2O)cc(OC)c1OC
2 = COc1ccccc1-c1cc(=O)c2c(O)cc(OC)c(OC)c2o1
input: # compare AUC(0-t) for 1 vs 2 ; return the one with the smaller value Reply with the label of the item you choose.
output: 1

###

Test: Pharmacokinetic study in rat plasma after oral administration of FKQJF extract (UFLC–MS/MS)
Format: in vivo, Sprague-Dawley (SD) rats
Conditions: Sprague-Dawley, oral FKQJF extract, single dose 3.2 g/kg, mean ± SD
outcome_measure: half-life (h)

I = COc1cc(/C=C/C(=O)O)ccc1O [Analyte 6, trans-ferulic acid]
II = O=Cc1ccc2n1C[C@]1(C[C@H](O)[C@@H](CO)O1)OC2
input: # compare half-life for I vs II ; return the one with the smaller value Reply with the label of the item you choose.
output: II

###

Test: Pharmacokinetic study in rat plasma after oral administration of FKQJF extract (UFLC–MS/MS)
Type: in vivo, Sprague-Dawley (SD) rats
Conditions: Sprague-Dawley, oral FKQJF extract, single dose 3.2 g/kg, mean ± SD
Description: Aliquots of 100 μL plasma samples were mixed with 10 μL I.S. samples (1 μg/mL, in MeOH), then added with 500 μL ACN, respectively, and vortexed for 5 min, centrifugated at 10,000 rpm for 10 min, the supernatants were transferred into clean vials and dried in a vacuum centrifugal concentrator at 1200 rpm, 37 °C. […] Data were analyzed using the Drug and Statistics (DAS) Software version 2.0 (DAS 2.0, Mathematical Pharmacology Professional Committee of China, Shanghai, China). […]
outcome_measure: AUC(0-inf) (ng·h/mL)

compound=COc1ccc2cc3[n+](cc2c1OC)CCc1cc2c(cc1-3)OCO2 units_label=ng·h/mL value_reported=5630
compound="C=C1CC[C@@H]2[C@](C)(CO)[C@H](O)CC[C@@]2(C)[C@@H]1/C=C/C1=CCOC1=O [Analyte 15, 14-deoxy-11,12-didehydro-andrographolide]" units_label=ng·h/mL value_reported=81.1
compound=O=C(O)c1ccccc1O units_label=ng·h/mL value_reported=2140
compound="O=Cc1ccc2n1C[C@@]1(C[C@H](O)[C@@H](CO)O1)OC2 [Analyte 4, 9-epi-acortatarin A]" units_label=ng·h/mL value_reported=92.6
compound=O=C1C[C@@H](c2ccc(O)cc2)Oc2cc(O)cc(O)c21 units_label=ng·h/mL value_reported=206
compound=COc1ccc(-c2coc3cc(O[C@@H]4O[C@H](CO)[C@@H](O)[C@H](O)[C@H]4O)ccc3c2=O)cc1 units_label=ng·h/mL value_reported=375

I = O=Cc1ccc2n1C[C@]1(C[C@H](O)[C@@H](CO)O1)OC2
II = COc1ccccc1-c1cc(=O)c2c(O)cc(OC)c(OC)c2o1
input: # compare AUC(0-inf) for I vs II ; return the one with the smaller value Reply with the label of the item you choose.
output: II

###

Assay: Pharmacokinetic study in rat plasma after oral administration of FKQJF extract (UFLC–MS/MS)
Assay type: in vivo, Sprague-Dawley (SD) rats
Conditions: Sprague-Dawley, oral FKQJF extract, single dose 3.2 g/kg, mean ± SD
outcome_measure: Cmax (ng/mL)

molecule="O=Cc1ccc2n1C[C@]1(C[C@H](O)[C@@H](CO)O1)OC2 [Analyte 3, acortatarin A]" value_reported=102

P = O=c1c(-c2ccc(O)cc2)coc2cc(O[C@@H]3O[C@H](CO)[C@@H](O)[C@H](O)[C@H]3O)cc(O)c12 [Analyte 7, genistin]
Q = C=C1CC[C@@H]2[C@](C)(CO)[C@H](O)CC[C@@]2(C)[C@@H]1/C=C/C1=CCOC1=O [Analyte 15, 14-deoxy-11,12-didehydro-andrographolide]
input: From the recorded data, which exceeds the other in Cmax: P or Q ? Reply with the label of the item you choose.
output: P

a = COc1ccccc1-c1cc(=O)c2c(O)cc(OC)c(OC)c2o1 [Analyte 16, panicolin]
b = O=C1C[C@@H](c2ccc(O)cc2)Oc2cc(O)cc(O)c21 [Analyte 14, naringenin]
input: # compare Cmax for a vs b ; return the one with the smaller value Reply with the label of the item you choose.
output: a
